Tested on: PBMC (T cell proliferation)
assayOverview: T cell proliferation assay, PHA-stimulated human PBMC (BrdU ELISA)
Type: cell-based
conditionContext: Homo sapiens, 48 h, read-out: D: IC50 (Tcell proliferation)
For each entry below, report its IC50 value.

smilesCode: CCOC(=O)c1c(-c2c(F)cccc2Cl)noc1-c1cnn(-c2ccccc2N)c1C(F)(F)F
IC50: 10 to 100 nM

Could you now consider this next compound?
Q) With PBMC (T cell proliferation) as the test system, provide measured IC50 for this compound: CCOC(=O)c1c(-c2c(F)cccc2Cl)noc1-c1cnn(-c2ccccc2Cl)c1C(F)(F)F
A) 100 to 1000 nM

Sourced from patent US8592456B2
